system: normal human bronchial epithelial cells (HBE); assay: CCK-8 cellular selectivity assay, HBE; type: cell-based; conditions: IC50 for HBE cell line/IC50 for H1975 cell line
SI Values (selectivity index) values, listed per item
I'd appreciate a reply containing only the number, no unit.

Examples from the recorded data:
Compound: O=C(NCCCCCCO)c1ccccc1Nc1nc(Nc2ccc(CN3CCOCC3)cc2)ncc1Cl [Compound 8g]
Assay target: normal human bronchial epithelial cells (HBE)
Meas value: 6
//
Compound: CN(CCOc1no[n+]([O-])c1S(=O)(=O)c1ccccc1)C(=O)c1ccccc1Nc1nc(Nc2ccc(CN3CCOCC3)cc2)ncc1Cl [Compound 9d]
Assay target: normal human bronchial epithelial cells (HBE)
Meas value: 4
//
Compound: C=CC(=O)Nc1cc(Nc2nccc(-c3cn(C)c4ccccc34)n2)c(OC)cc1N(C)CCN(C)C [Osimertinib, osimertinib, reference compound]
Assay target: normal human bronchial epithelial cells (HBE)
Meas value: 10
//
Compound: O=C(NCCCO)c1ccccc1Nc1nc(Nc2ccc(CN3CCOCC3)cc2)ncc1Cl [Compound 8b]
Assay target: normal human bronchial epithelial cells (HBE)
Meas value: 15

Let us move to another entry and its SI Values (selectivity index).
Give its SI Values (selectivity index) value. Item: CN(CCO)C(=O)c1ccccc1Nc1nc(Nc2ccc(CN3CCOCC3)cc2)ncc1Cl [Compound 8d]
13

----------
system: normal human bronchial epithelial cells (HBE); assay: CCK-8 cellular selectivity assay, HBE; type: cell-based; conditions: Homo sapiens, Epithelial cell; HBE normal cells, CCK-8, 72 h; mean ± SD of three experiments; read-out: Antiproliferative Activity IC50, HBE
# IC50 annotations
Numeric only. Scale: nM

Recorded IC50, per entry:
Molecule: CC(CNC(=O)c1ccccc1Nc1nc(Nc2ccc(CN3CCOCC3)cc2)ncc1Cl)Oc1no[n+]([O-])c1S(=O)(=O)c1ccccc1 (stereo not shown)
IC50, nM: 2420
--
Molecule: O=C(c1ccccc1Nc1nc(Nc2ccc(CN3CCOCC3)cc2)ncc1Cl)N1CCC(O)CC1
IC50, nM: 435

Then this molecule:
Given CN(CCO)C(=O)c1ccccc1Nc1nc(Nc2ccc(CN3CCOCC3)cc2)ncc1Cl , state its recorded IC50.
3820

----------
Listing: melting point of selected compounds

Mol: O=C(NCCOc1no[n+]([O-])c1S(=O)(=O)c1ccccc1)c1ccccc1Nc1nc(Nc2ccc(CN3CCOCC3)cc2)ncc1Cl
melting point: 174 to 176 °C

Mol: O=C(NCCCCCCOc1no[n+]([O-])c1S(=O)(=O)c1ccccc1)c1ccccc1Nc1nc(Nc2ccc(CN3CCOCC3)cc2)ncc1Cl
melting point: 120 to 122 °C

Shift focus to the following entry.
Which melting point reading was recorded for the compound CN(CCOc1no[n+]([O-])c1S(=O)(=O)c1ccccc1)C(=O)c1ccccc1Nc1nc(Nc2ccc(CN3CCOCC3)cc2)ncc1Cl ?
169 to 171 °C
